These measurements were taken from ChEMBL document CHEMBL3507680.

- testProtocol: Human HepG2 cell viability assay in 384 well format
- Type: toxicity, cell-based
- Parameters: dose 125 nL, time 70.5 hour; concentration not given beside the values
- details: HepG2 cells, read-out: Inhibition
Provide the recorded cytotoxicity at 70.5 h for the entries that follow.
All answers are understood in %, so give the number only.

Endpoint output: cytotoxicity at 70.5 h of Fc1ccc(-c2cnc(CNC3CCc4ncnn4C3)o2)cc1 (stereo unspecified) . Value?
-8.23

Please give the result for Cn1c(C(=O)N2CCC(C(N)=O)C2)c(Cl)c2ccccc21 (stereo unspecified) too.
-5.34

Also need `COCc1nc(CNc2cc(C)on2)cs1` , thanks.
-3.59

Follow-up item: COCCOc1ccc(NC(=O)N2CCCC2c2ccncc2)cn1 (stereo unspecified)
-11.8

Now the compound N#Cc1cccc(NC2CC(=O)N(C3Cc4ccccc4C3)C2)n1 (stereo unspecified)
19

Entry to check: `Cc1ccc(N2CCC3(CCN(C(=O)c4ccsc4)CC3)CC2)nn1`
-7.09

Entry COCC1CN(Cc2csc(C)n2)Cc2nccn2C1 (stereo unspecified) please
2.98

Let us now turn to O=C(O)c1ccccc1-c1ccc(CN2CCCC(O)C2)cc1 (stereo unspecified)
-8.74

Another compound to check: Cc1cnn(CC(C)NCc2csc(-c3ccsc3)n2)c1 (stereo unspecified)
-0.817

Now consider `COCc1nc(C(=O)NS(=O)(=O)c2ccc(OC)c(C)c2)cs1` and answer again.
-13.2

Please give the result for `CCNC(=O)N1CCc2ccc(NC(=O)NCCOCC)cc21` too.
1.97

Same read-out for `CN(C)c1ncccc1CNC(=O)c1csc(Br)c1` ?
13.3

Also, `CN(C)c1cc(N2CCN(c3ccccn3)CC2)ncn1` please.
22.1

Same thing, different compound: Cc1c(CN2CCCC(O)C2)[nH]c2ccc(F)cc12 (stereo unspecified)
0.643

Also need `CSc1nccn1-c1cccc(C(=O)NCc2nnc(C)n2C)c1` , thanks.
6.07

Ok, now `CN1CSC[C@H]1C(=O)N1CCN(Cc2cccc(Cl)c2)CC1`
-5.08

Let us now turn to `Cc1ccccc1C(=O)NCCCN1CCc2ccccc2C1`
19.4

For `CN(Cc1ccccc1)S(=O)(=O)N1C[C@H](C2CC2)[C@@H](N)C1` then?
-1.23

Ok, now `COc1ccc(CN2CCn3cc(CN4CCCCC4)nc3C2)cc1`
29.5

Repeat with O=C(c1ccc(SC(F)(F)F)cc1)N1CCOCC1c1ncon1 (stereo unspecified)
-5.57

Item: `CCO[C@H]1CC[C@H]2[C@H]1OCCN2C(=O)c1nn(C)c2ccccc12`
0.53

====

- testProtocol: Human HepG2 cell viability assay in 384 well format
- Assay type: toxicity, cell-based
- Set-up: dose 125 nL, time 70.5 hour; concentration not given beside the values
- details: HepG2 cells, read-out: Inhibition
Would you kindly list cytotoxicity at 70.5 h for each of these compounds?
The response must be a number in % with no trailing unit.

Which cytotoxicity at 70.5 h value is on record for `Cc1ncsc1CN1CCC2(CC1)CC(=O)N(Cc1ccc(Cl)cc1)C2` ?
-3.74

Moving on to the next compound: `O=C(c1cc2cc(I)ccc2[nH]1)N1CCC(Nc2cccnn2)CC1`
1.42

And the next one, `O=C(NCCNC(=O)c1scnc1Cl)c1ccoc1` ?
5.67

Here is the next compound: `CCN(CCO)C[C@@H]1CN(c2cc(C(F)(F)F)cc(C)n2)C[C@@H]1CO`
-8.43

Consider next the compound `Cc1nnc(NCc2ccccc2F)c(C#N)c1C` in the same way.
-5.23

Same lookup for CSc1nccc(N2CCN(C)C3(CCNC(=O)CC3)C2)n1 (configuration not stated) , please.
-5.4

Same question, `Cc1cccnc1NCCNC(=O)[C@H]1CNC[C@@H](C(=O)N2CCCC2)C1` this time
0.731

Please give the result for `CN(CCCOc1ccc(F)cc1)S(=O)(=O)c1cnn(C)c1` too.
-8.61

Item: `CCOC(=O)c1coc(N2CCN(Cc3cc(C)cc(C)c3)C(=O)C2)n1`
-5.18

Now try Cc1c(Br)cccc1C(=O)NCCC1CCCNC1 (configuration not stated) .
12

Also `O=C(C1CC1)N1C[C@H]2CCCN(S(=O)(=O)c3ccc(Cl)s3)[C@H]2C1` , if possible.
-0.267

Please give the result for Cn1cc(CN2CCC3(CC2)CC(c2ccncc2)C(=O)N3)cn1 (configuration not stated) too.
-10.1

Same read-out for Cc1n[nH]c(C2CN(Cc3csc(C4CC4)n3)CCO2)n1 (configuration not stated) ?
-7.97

Same thing, different compound: Cc1nc(C)n(CC2CCCN2CC(=O)Nc2c(C)n[nH]c2C)n1 (configuration not stated)
-1.18

Queued: O=C(COc1ccccc1F)N1CCCCC1c1ccn2ccnc2n1 (configuration not stated)
-11.7

Would you mind doing `O=C1CCCc2cc(-c3csc(CCN4CCOC4=O)n3)ccc2N1` as well?
-0.559

Then what about the compound COCCNC(=O)C1CN(Cc2ccsc2)Cc2ccnn2C1 (configuration not stated) ?
1.38
